Reference source: patent US20160052996A1

# SYSTEM: BKV VP1 VLP (BK virus (BKV), AS strain) (UniProt P14996)
# Sequence (P14996 whole entry): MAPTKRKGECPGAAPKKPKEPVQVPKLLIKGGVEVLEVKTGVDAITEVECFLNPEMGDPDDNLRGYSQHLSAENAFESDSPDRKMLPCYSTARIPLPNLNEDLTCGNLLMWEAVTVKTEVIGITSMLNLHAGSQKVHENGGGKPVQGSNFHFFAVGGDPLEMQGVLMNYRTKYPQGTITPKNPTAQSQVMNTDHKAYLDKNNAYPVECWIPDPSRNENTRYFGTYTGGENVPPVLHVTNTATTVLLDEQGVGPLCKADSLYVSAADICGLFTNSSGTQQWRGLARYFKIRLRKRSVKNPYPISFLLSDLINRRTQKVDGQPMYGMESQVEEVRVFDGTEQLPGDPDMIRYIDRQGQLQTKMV
# PROCEDURE SUMMARY: direct ELISA
# EC50 per entry
Report the figure in nM without appending any unit label.

EC50 lookup needed for NI-307.6A2 (antibody, V domains shown) VH: QVQLQESGPGLVKPSETLSLTCAVSGGSVSSSYWYSWVRQLPGKGLEWIGEIFHTGDTNYNPSLESRVTISIDTSKNQLSLDVTSATAADTAVYYCARDYCTDSGCDSDALDVWGHGTMVTVSS VL: QSALTQPASVSGSPGQSITISCTGTTKDVGNYNLVSWYQQHPGKAPRLVIYEVSERPSGVSNRFSGSKSGNTASLTISGLQAEDEADYHCCSYAGSGTSVFGGGTKVTVL , thanks.
1.17

EC50 lookup needed for NI-307.78C3 (antibody, V domains shown) VH: QVQLQESGPGLVKPSGTLSLTCTVSGGSISGRIWWSWVRQPPGKGLEWIGEIYHSGSTNYSPSLRGRVTISVDTSKQHFSLKMTSVTAADTAMYYCVRGELALGFDSWGQGTLVTVSS VL: QSALTQPPSASGSPGQSVTISCTGTSSDVGGYNSVSWYQQHPRRAPKLMIYEVSKRPSGVPDRFSGSKSGNTASLTVSGLQADDEAHYYCSSYAGSNNLVFGGGTMLTVL , thanks.
0.939
